Quick reference for EC50 among some compounds
# subject of test: CI-M6PR (Homo sapiens, UniProt P11717)
# Sequence (P11717 41-1365 limits assumed): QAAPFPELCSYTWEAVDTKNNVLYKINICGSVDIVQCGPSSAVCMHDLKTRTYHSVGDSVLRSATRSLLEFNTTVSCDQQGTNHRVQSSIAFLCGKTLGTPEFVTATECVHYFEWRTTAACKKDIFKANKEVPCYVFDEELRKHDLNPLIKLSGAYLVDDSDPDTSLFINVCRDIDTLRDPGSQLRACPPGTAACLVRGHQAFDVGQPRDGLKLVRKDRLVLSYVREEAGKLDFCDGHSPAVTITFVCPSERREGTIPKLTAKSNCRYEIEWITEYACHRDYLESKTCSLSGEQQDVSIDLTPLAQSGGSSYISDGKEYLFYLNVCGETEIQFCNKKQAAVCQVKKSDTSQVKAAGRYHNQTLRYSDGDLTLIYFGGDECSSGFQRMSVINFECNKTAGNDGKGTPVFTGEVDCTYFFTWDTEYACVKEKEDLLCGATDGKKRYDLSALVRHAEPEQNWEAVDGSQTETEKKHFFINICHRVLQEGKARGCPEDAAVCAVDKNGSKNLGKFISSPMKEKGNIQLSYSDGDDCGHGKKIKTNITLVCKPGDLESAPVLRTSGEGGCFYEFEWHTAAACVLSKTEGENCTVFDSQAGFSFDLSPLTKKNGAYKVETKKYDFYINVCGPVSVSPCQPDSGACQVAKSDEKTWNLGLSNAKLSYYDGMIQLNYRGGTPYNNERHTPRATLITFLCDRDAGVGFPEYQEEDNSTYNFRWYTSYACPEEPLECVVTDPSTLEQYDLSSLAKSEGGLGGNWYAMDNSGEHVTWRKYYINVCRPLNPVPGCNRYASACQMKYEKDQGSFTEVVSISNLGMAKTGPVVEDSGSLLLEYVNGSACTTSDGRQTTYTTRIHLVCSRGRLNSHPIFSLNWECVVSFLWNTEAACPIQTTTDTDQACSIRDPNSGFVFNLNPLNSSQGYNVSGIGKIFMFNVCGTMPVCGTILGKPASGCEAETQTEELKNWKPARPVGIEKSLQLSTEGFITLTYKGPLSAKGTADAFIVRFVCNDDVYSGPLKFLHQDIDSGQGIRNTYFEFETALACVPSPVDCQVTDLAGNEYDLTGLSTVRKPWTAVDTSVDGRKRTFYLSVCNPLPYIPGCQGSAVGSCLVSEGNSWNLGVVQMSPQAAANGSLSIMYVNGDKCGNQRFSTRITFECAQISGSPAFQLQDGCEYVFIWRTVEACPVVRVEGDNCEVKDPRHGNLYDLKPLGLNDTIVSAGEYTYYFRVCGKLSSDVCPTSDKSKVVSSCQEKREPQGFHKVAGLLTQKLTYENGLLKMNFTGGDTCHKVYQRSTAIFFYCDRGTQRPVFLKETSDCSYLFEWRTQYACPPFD
# assay text: Human CI-M6PR binding assay (ELISA)
# Design: purchased R&D 6418-GR-050
# assay conditions: antibody conjugate, average loading DAR 9; read-out: EC50 (nM) in M6PR binding assay

{"compound": "O=C(CCOCCOCCOCCOCCn1cc(CCCCNC(=S)Nc2ccc(O[C@H]3O[C@H](CCP(=O)(O)O)[C@@H](O)[C@H](O)[C@@H]3O)cc2)nn1)Oc1c(F)c(F)c(F)c(F)c1F [520 (I-7)]", "EC50 [nM]": 0.22}
{"compound": "O=C(CCCCCc1cn(CCOCCOCCOCCOCCC(=O)Oc2c(F)c(F)c(F)c(F)c2F)nn1)Nc1ccc(O[C@H]2O[C@H](CCP(=O)(O)O)[C@@H](O)[C@H](O)[C@@H]2O)cc1 [513 (I-39)]", "EC50 [nM]": 0.19}

---

# subject of test: CI-M6PR (Homo sapiens)
# assay text: Human CI-M6PR binding assay (ELISA)
# Parameters: purchased R&D 6418-GR-050
# assay conditions: Table 16C; cetuximab (anti-EGFR) conjugate, average loading DAR 9.2; read-out: EC50 in M6PR binding assay
property label: EC50 (nM)

{"compound": "Cc1cc(NC(=O)NCCCCc2cn(CCOCCOCCOCCOCCC(=O)Oc3c(F)c(F)c(F)c(F)c3F)nn2)ccc1O[C@H]1O[C@H](CCP(=O)(O)O)[C@@H](O)[C@H](O)[C@@H]1O [545 (I-87)]", "recorded number": 0.3}

---

# Test system: Jurkat cells
# assay text: Uptake of IgE-Alexa488 target by omalizumab conjugates in Jurkat cells
# Assay type: cell-based
# assay conditions: 1 hour, FIGS. 15-17
property label: relative cellular uptake activity of IgE-Alexa488, omalizumab conjugates of Table 15A

{"compound": "O=C(NCCCCc1cn(CCOCCOCCOCCOCCC(=O)Oc2c(F)c(F)c(F)c(F)c2F)nn1)Nc1ccc(O[C@H]2C[C@H](CCP(=O)(O)O)[C@@H](O)[C@H](O)[C@@H]2O)cc1 [Compound 665]", "subject of test": "Jurkat cells", "result": "low activity"}
{"compound": "O=C(CCOCCOCCOCCOCCn1cc(CCCCNC(=S)Nc2ccc(O[C@H]3O[C@H](CCS(=O)(=O)O)[C@@H](O)[C@H](O)[C@@H]3O)cc2)nn1)Oc1c(F)c(F)c(F)c(F)c1F [556 (1-104)]", "subject of test": "Jurkat cells", "result": "low activity"}

---

# subject of test: UniProt:P11717
# assay text: Human CI-M6PR binding assay (ELISA)
# Design: purchased R&D 6418-GR-050
# assay conditions: antibody conjugate, average loading DAR 9.5; read-out: EC50 (nM) in M6PR binding assay
Quick reference for EC50 among some compounds

{"molecule": "O=C(NCCCCc1cn(CCOCCOCCOCCOCCC(=O)Oc2c(F)c(F)c(F)c(F)c2F)nn1)Nc1ccc(O[C@H]2O[C@H](CCP(=O)(O)O)[C@@H](O)[C@H](O)[C@@H]2O)cc1", "EC50 / nM": 0.19}
{"molecule": "C[C@H](NC(=O)CCCn1cc(CCCCNC(=S)Nc2ccc(O[C@H]3O[C@H](CCP(=O)(O)O)[C@@H](O)[C@H](O)[C@@H]3O)cc2)nn1)C(=O)N[C@@H](C)C(=O)N[C@@H](C)C(=O)NCCOCCOCCOCCOCCC(=O)Oc1c(F)c(F)c(F)c(F)c1F", "EC50 / nM": 0.2}
